- target: UniProt:P12530
- methodDescription: Selectivity ratio of IC50 for inhibition of wild type Rabbit N-terminal His-tagged ALOX15 expressed in Escherichia coli using linoleic acid as substrate to IC50 for inhibition of wild type rabbit N-terminal His-tagged ALOX15 expressed in Escherichia coli using arachidonic acid as substrate by spectrophotometric assay
observedProperty: Ratio IC50

Completed entries (count: 3):
C=CCOC(=O)NS(=O)(=O)Nc1cc(-c2cc3ccccc3[nH]2)ccc1OC
0.014
CCCCCCCCOC(=O)NS(=O)(=O)Nc1cccc(-c2cc3ccccc3[nH]2)c1
0.55
COc1ccc(-c2cc3cc(F)ccc3[nH]2)cc1NS(=O)(=O)NC(=O)OCC(C)C
0.02

1: C=CCOC(=O)NS(=O)(=O)Nc1cc(-c2cc3cc(F)ccc3[nH]2)ccc1OC
2: CCCCCCCCOC(=O)NS(=O)(=O)Nc1cc(-c2cc3cc(F)ccc3[nH]2)ccc1OC
// max by Ratio IC50 over [ 1 , 2 ] # answer = label of selected item
2
(2: 0.043, 1: 0.023)

====

- target: Polyunsaturated fatty acid lipoxygenase ALOX15 (Oryctolagus cuniculus)
- methodDescription: Mixed mode inhibition of wild type Rabbit N-terminal His-tagged ALOX15 expressed in Escherichia coli assessed as inhibition constant using linoleic acid as substrate
observedProperty: Ki (nM)
Respond with the bare value in nM.

What value of measured Ki is listed for CCCCCCCCOC(=O)NS(=O)(=O)Nc1cccc(-c2cc3ccccc3[nH]2)c1 ?
790

====

- target: UniProt P12530
- methodDescription: Non-competitive inhibition of wild type rabbit N-terminal His-tagged ALOX15 expressed in Escherichia coli assessed as inhibition constant using linoleic acid as substrate
observedProperty: Ki (nM)

I: CCCCCCCCOC(=O)NS(=O)(=O)Nc1cccc(-c2cc3ccccc3[nH]2)c1
II: COc1ccc(-c2cc3cc(F)ccc3[nH]2)cc1NS(=O)(=O)NC(=O)OCC(C)C
Which shows the larger Ki value: I or II ? Lab log: write the label of the selected item as the result.
I

====

- target: Polyunsaturated fatty acid lipoxygenase ALOX15 (Oryctolagus cuniculus, UniProt P12530)
- Sequence (P12530 whole entry): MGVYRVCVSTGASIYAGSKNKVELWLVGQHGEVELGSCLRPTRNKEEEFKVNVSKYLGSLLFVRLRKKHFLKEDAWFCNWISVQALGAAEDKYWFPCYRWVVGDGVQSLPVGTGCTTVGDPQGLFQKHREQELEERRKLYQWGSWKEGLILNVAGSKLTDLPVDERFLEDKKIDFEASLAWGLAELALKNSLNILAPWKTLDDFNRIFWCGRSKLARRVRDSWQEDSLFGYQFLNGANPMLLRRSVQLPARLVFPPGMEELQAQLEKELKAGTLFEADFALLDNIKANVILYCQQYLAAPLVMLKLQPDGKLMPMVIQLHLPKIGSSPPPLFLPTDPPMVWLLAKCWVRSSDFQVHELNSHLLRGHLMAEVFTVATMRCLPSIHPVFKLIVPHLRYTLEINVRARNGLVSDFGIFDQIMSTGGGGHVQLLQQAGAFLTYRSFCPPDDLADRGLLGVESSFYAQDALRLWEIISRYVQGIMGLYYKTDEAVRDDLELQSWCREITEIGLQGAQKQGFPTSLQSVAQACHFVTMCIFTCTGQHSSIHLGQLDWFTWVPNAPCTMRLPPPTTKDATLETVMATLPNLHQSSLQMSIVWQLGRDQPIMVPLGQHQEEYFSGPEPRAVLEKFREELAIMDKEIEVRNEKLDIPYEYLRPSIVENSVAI
- methodDescription: Inhibition of wild type rabbit N-terminal His-tagged ALOX15 expressed in Escherichia coli using arachidonic acid as substrate by spectrophotometric assay
observedProperty: IC50 (µM)

Take a look at these entries with their results.
C=CCOC(=O)NS(=O)(=O)Nc1cc(-c2cc3cc(F)ccc3[nH]2)ccc1OC
23.3
CCCCCCCCOC(=O)NS(=O)(=O)Nc1cccc(-c2cc3ccccc3[nH]2)c1
2.79
C=CCOC(=O)NS(=O)(=O)Nc1cc(-c2cc3ccccc3[nH]2)ccc1OC
43.3

A: CCCCCCCCOC(=O)NS(=O)(=O)Nc1cc(-c2cc3cc(F)ccc3[nH]2)ccc1OC
B: COc1ccc(-c2cc3cc(F)ccc3[nH]2)cc1NS(=O)(=O)NC(=O)OCC(C)C
Pick the one with the larger IC50: A vs B Lab note: record the label of whichever item you select.
B
(B: 20.8 µM, A: 1.08 µM)

====

- methodDescription: Inhibition of rabbit N-terminal His-tagged ALOX15 L183E/L192E double mutant expressed in Escherichia coli arachidonic acid as substrate by spectrophotometric assay
- Set-up: species or system Oryctolagus cuniculus
observedProperty: pIC50
Friendly reminder that pIC50 comes from taking -log10 of the concentration in mol/L.

Query: pIC50; subject: CCCCCCCCOC(=O)NS(=O)(=O)Nc1cccc(-c2cc3ccccc3[nH]2)c1
5.31

====

- target: Polyunsaturated fatty acid lipoxygenase ALOX15 (Oryctolagus cuniculus, UniProt P12530)
- methodDescription: Inhibition of wild type rabbit N-terminal His-tagged ALOX15 expressed in Escherichia coli using linoleic acid as substrate by spectrophotometric assay
observedProperty: IC50 (nM)

As a guide, the following entries are already answered.
CCCCCCCCOC(=O)NS(=O)(=O)Nc1cccc(-c2cc3ccccc3[nH]2)c1
1550
COc1ccc(-c2cc3cc(F)ccc3[nH]2)cc1NS(=O)(=O)NC(=O)OCC(C)C
420
C=CCOC(=O)NS(=O)(=O)Nc1cccc(-c2cc3ccccc3[nH]2)c1
15400
CCCCCCCCOC(=O)NS(=O)(=O)Nc1cc(-c2cc3cc(F)ccc3[nH]2)ccc1OC
47
CC(C)COC(=O)NS(=O)(=O)Nc1cccc(-c2cc3ccccc3[nH]2)c1
30000

a: COc1ccc(-c2cc3ccccc3[nH]2)cc1NS(=O)(=O)NC(=O)OCC(C)C
b: C=CCOC(=O)NS(=O)(=O)Nc1cc(-c2cc3ccccc3[nH]2)ccc1OC
Lab log: flag the item ( a or b ) with the smaller IC50 figure. Bench note: the answer is the label of the chosen record.
b

====

- target: Polyunsaturated fatty acid lipoxygenase ALOX15 (Oryctolagus cuniculus)
- methodDescription: Mixed mode inhibition of wild type Rabbit N-terminal His-tagged ALOX15 expressed in Escherichia coli assessed as inhibition constant using arachidonic acid as substrate
observedProperty: Ki (µM)
# output: bare number, implied unit µM

Given the molecule CCCCCCCCOC(=O)NS(=O)(=O)Nc1cccc(-c2cc3ccccc3[nH]2)c1 , what is its reported Ki?
3.13

====

- target: UniProt P12530
- methodDescription: Inhibition of wild type rabbit N-terminal His-tagged ALOX15 expressed in Escherichia coli using arachidonic acid as substrate by spectrophotometric assay
observedProperty: IC50

# count of solved cases: 2
COc1ccc(-c2cc3ccccc3[nH]2)cc1NS(=O)(=O)NC(=O)OCC(C)C
> 50 µM
C=CCOC(=O)NS(=O)(=O)Nc1cccc(-c2cc3ccccc3[nH]2)c1
> 50 µM

Requested field: IC50. Item: CC(C)COC(=O)NS(=O)(=O)Nc1cccc(-c2cc3ccccc3[nH]2)c1
> 50 µM
